Assay system: OGA (Homo sapiens)
Construct: HEK293 cells inducible for P301L mutant human Tau (isoform 2N4R) were established at Janssen; endogenous in cells; host or cells: HEK293 cells inducible for P301L mutant human Tau (2N4R)
Experiment notes: OGA cellular assay: immunocytochemical detection of O-GlcNAcylated proteins in HEK293 cells inducible for P301L mutant human Tau
Format: cell-based
Experimental conditions: HEK293, read-out: Cellular Emax (%)
Property: Emax

- CC(=O)Nc1ncc(S(=O)(=O)N2CCCC(c3cc(C(F)F)nc4ncnn34)C2)s1 (racemic): 39.4%
- CC(=O)Nc1ncc(CN2CCC(Cc3cnc4ccn(C)c4c3)C2)s1 (centres unmarked): 108%
- CC(=O)Nc1ncc(S(=O)(=O)N2CCNC(c3cc(C(F)F)nc4ncnn34)C2)s1 (centres unmarked): 10.5%
- CC(=O)Nc1ncc(S(=O)(=O)N2CCOC(c3cc(C(F)F)nc4ncnn34)C2)s1 (centres unmarked): 15.7%
- CC(=O)Nc1ncc(CN2CCC[C@H](c3ccnc4ccn(C)c34)C2)s1 (single isomer, unassigned): 79.2%
- CC(=O)Nc1ncc(CN2CCCC(Cc3cccc4nccn34)C2)s1 (centres unmarked): 97.3%
- CC(=O)Nc1ncc(CN2CCCC(c3cc(C)nc4ncnn34)C2)s1 (racemic): 113%
- CC(=O)Nc1ncc(CN2CCC(Cc3c(F)c(C)nc4ncnn34)C2)s1 (centres unmarked): 105%

---

Quick reference: Emax of the listed items.
Assay system: OGA (Homo sapiens)
Construct: HEK293 cells inducible for P301L mutant human Tau (isoform 2N4R) were established at Janssen; endogenous in cells; host or cells: HEK293 cells inducible for P301L mutant human Tau (2N4R)
Experiment notes: OGA cellular assay: immunocytochemical detection of O-GlcNAcylated proteins in HEK293 cells inducible for P301L mutant human Tau
Format: cell-based
Experimental conditions: HEK293, read-out: Cellular Emax (%)
Property: Emax

* CC(=O)Nc1ncc(S(=O)(=O)N2CCOC(c3cc(C(F)(F)F)nc4ncnn34)C2)s1 (stereo not drawn) | 19.5%
* CC(=O)Nc1ncc(CN2CCCC(c3cnc4cc[nH]c4c3)C2)s1 (stereo not drawn) [Product 106] | 71%
* CC(=O)Nc1ncc(CN2CCCC(Cc3cc(C)nc4ccnn34)C2)s1 (stereo not drawn) | 129%
* CC(=O)Nc1ncc(CN2CCCC(Cc3cnc4cc[nH]c4c3)C2)s1 (stereo not drawn) | 109%
* CC(=O)Nc1ncc(CN2CCC(Cc3cc(C)nc4ncnn34)C2)s1 (stereo not drawn) | 104%
* CC(=O)Nc1ncc(CN2CCCC(c3cc4cc[nH]c4nc3C)C2)s1 (racemic) | 102%
* CC(c1ccc2c(c1)OCO2)N1CCOC(c2ccnc3ncnn23)C1 (stereo not drawn) | 1.01%
* CC(=O)Nc1ncc(CN2CCCC(c3nc(C)cc4cc[nH]c34)C2)s1 (stereo not drawn) | 84.3%
* CC(=O)Nc1ncc(CN2CCCC(Cc3cc(C)nc4ncnn34)C2)s1 (stereo not drawn) | 114%

---

Quick reference: Emax of the listed items.
Assay system: OGA (Homo sapiens, UniProt O60502)
Construct: HEK293 cells inducible for P301L mutant human Tau (isoform 2N4R) were established at Janssen; endogenous in cells; host or cells: HEK293 cells inducible for P301L mutant human Tau (2N4R)
Experiment notes: OGA cellular assay: immunocytochemical detection of O-GlcNAcylated proteins in HEK293 cells inducible for P301L mutant human Tau
Format: cell-based
Experimental conditions: HEK293, read-out: Cellular Emax (%)
Property: Emax (%)

- CC(=O)Nc1ncc(CN2CCC(Cc3cnc4cc[nH]c4c3)C2)s1 (stereo not drawn) [Product 68]: 91.2
- CC(=O)Nc1ncc(CN2CCCC(c3cnc4cc[nH]c4c3)C2)s1 (racemic) [Product 26]: 99
- CC(=O)Nc1ncc(S(=O)(=O)N2CCO[C@@H](c3ccnc4ncnn34)C2)s1 [Product 31]: 11.1
- CC(=O)Nc1ncc(CN2CC[C@H](Cc3nccn4c(C)cnc34)C2)s1 [Product 104]: 91.5
- CC(=O)Nc1ncc(CN2CCCC(c3cc(C(F)F)n4ccnc4n3)C2)s1 (racemic) [Product 24]: 109
- CC(=O)Nc1ncc(CN2CCCC(c3ccnc4cc[nH]c34)C2)s1 (racemic) [Product 15]: 95.2
- CC(=O)Nc1ncc(CN2CCCC(Cc3cncc4nccn34)C2)s1 (stereo not drawn) [Product 45]: 96.9
- CC(=O)Nc1ncc(CN2CCCC(c3cccc4nccn34)C2)s1 (racemic) [Product 12]: 103
- CC(=O)Nc1ncc(CN2CCCC(c3cc(C)nc4nccn34)C2)s1 (stereo not drawn) [Product 17]: 106

---

Assay system: recombinant human Meningioma Expressed Antigen 5 (MGEA5), also referred to as O-GlcNAcase (OGA) (Homo sapiens, UniProt O60502)
Construct: Full length OGA enzyme was purchased at OriGene (cat # TP322411); purchased OriGene TP322411
Sequence (O60502 1-916): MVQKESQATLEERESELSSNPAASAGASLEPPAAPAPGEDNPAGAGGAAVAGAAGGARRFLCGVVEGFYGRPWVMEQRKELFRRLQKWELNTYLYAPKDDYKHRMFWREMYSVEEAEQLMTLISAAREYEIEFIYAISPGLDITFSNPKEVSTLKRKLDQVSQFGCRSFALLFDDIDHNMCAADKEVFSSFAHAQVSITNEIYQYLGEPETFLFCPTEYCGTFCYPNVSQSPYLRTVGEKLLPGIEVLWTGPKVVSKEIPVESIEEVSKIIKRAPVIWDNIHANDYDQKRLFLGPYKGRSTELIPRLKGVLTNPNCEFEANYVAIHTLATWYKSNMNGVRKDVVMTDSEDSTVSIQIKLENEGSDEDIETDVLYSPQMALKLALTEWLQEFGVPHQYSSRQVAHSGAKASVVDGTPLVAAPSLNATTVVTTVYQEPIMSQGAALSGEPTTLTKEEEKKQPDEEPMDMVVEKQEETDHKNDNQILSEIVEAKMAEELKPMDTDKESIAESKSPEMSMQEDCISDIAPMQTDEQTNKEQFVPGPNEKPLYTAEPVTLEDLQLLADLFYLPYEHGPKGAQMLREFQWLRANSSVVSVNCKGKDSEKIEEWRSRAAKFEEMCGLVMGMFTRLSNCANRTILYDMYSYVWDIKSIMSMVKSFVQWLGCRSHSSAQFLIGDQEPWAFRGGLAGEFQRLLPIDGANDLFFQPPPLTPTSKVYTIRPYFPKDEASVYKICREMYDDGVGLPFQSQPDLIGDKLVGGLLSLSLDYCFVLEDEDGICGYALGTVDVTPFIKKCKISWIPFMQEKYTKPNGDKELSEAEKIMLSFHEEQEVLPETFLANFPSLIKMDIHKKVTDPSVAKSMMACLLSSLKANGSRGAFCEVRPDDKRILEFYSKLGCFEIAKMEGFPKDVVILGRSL
Experiment notes: OGA biochemical assay: inhibition of FM-GlcNAc hydrolysis, fluorescence; protocol A (10 nM OGA, 1 h) or protocol B (2 nM OGA, 6 h)
Experimental conditions: Enzymatic protocol A (10 nM OGA, 1 h); read-out: Enzymatic hOGA; pIC50 (converted)
Property: IC50 (µM)

* CC(=O)Nc1ncc(S(=O)(=O)N2CCCCC(c3ccnc4ncnn34)C2)s1 (centres unmarked) [Product 109] | 0.437
* CC(=O)Nc1ncc(CN2CC[C@H](C)[C@@H](c3cc(C(F)F)nc4ncnn34)C2)s1 [Product 16] | 1.82
* CC(=O)Nc1ncc(S(=O)(=O)N2CCNC(c3cc(C(F)F)nc4ncnn34)C2)s1 (centres unmarked) [Product 41] | 0.00617
* CC(=O)Nc1ncc(CN2CCOC(c3cc(C(F)F)n4ncnc4n3)C2)s1 (centres unmarked) [Product 39] | 3.47
* CC(=O)Nc1ncc(S(=O)(=O)N2CCCC(c3cc(C(F)F)nc4nccn34)C2)s1 (racemic) [Product 5] | 0.0676
* CC(=O)Nc1ncc(S(=O)(=O)N2CCC(c3cc(C)nc4ncnn34)C2)s1 (racemic) [Product 8] | 1.55
* CC(=O)Nc1ncc(S(=O)(=O)N2CCCC(C)(c3cc(C(F)F)nc4ncnn34)C2)s1 (centres unmarked) [Product 60] | 1.86
* CC(=O)Nc1ncc(S(=O)(=O)N2CCNC(c3cc(C)nc4ncnn34)C2)s1 (centres unmarked) [Product 40] | 0.0166

---

Property: melting point (°C)

* CC(=O)Nc1ncc(CN2CCCC(c3cc(C(F)F)nc4ncnn34)C2)s1 (racemic) [Product 13] | 186.01
* CC(=O)Nc1ncc(CN2CCOC(c3cc(C(F)(F)F)nc4ncnn34)C2)s1 (stereo not shown) [Product 37] | 242.64
* CC(=O)Nc1ncc(CN2CCC[C@@H](c3cc(C(F)F)n4ncnc4n3)C2)s1 [Product 25] | 182.53
* CC(=O)Nc1ncc(S(=O)(=O)N2CCOC(c3cc(C)nc4ncnn34)C2)s1 (racemic) [Product 28] | 290.78
* Cc1cc([C@H]2CN([C@@H](C)c3ccc4c(c3)OCO4)CCN2)n2ncnc2n1 [Product 57] | 161.31
* CC(=O)Nc1ncc(S(=O)(=O)N2CCCC(C)(c3cc(C(F)F)nc4ncnn34)C2)s1 (stereo not shown) [Product 60] | 238.12
* CC(=O)Nc1ncc(S(=O)(=O)N2CCC3(CC3)C(c3cc(C(F)F)nc4ncnn34)C2)s1 (stereo not shown) [Product 63] | 266.56
* CC(=O)Nc1ncc(S(=O)(=O)N2CCO[C@H](c3ccnc4ncnn34)C2)s1 [Product 32] | 260.51
* CC(=O)Nc1ncc(CN2CCOC(c3cc(C)nc4ncnn34)C2)s1 (stereo not shown) [Product 35] | 264.26
* CC(=O)Nc1ncc(S(=O)(=O)N2CCC[C@@H](c3cc(C(F)F)n4ncnc4n3)C2)s1 [Product 22] | 263.43
* CC(=O)Nc1ncc(S(=O)(=O)N2CCO[C@@H](c3ccnc4ncnn34)C2)s1 [Product 31] | 263.16
* CC(=O)Nc1ncc(S(=O)(=O)N2CCOC(c3cc(C(F)F)n4ncnc4n3)C2)s1 (stereo not shown) [Product 38] | 229.94
* CC(=O)Nc1ncc(CN2CC[C@H](Cc3nccn4c(C)cnc34)C2)s1 [Product 104] | 189.54
* Cc1cc([C@H]2CN([C@H](C)c3ccc4c(c3)OCO4)CCN2)n2ncnc2n1 [Product 56] | 199.25
* CC(=O)Nc1ncc(CN2CCNC(c3cc(C)nc4ncnn34)C2)s1 (stereo not shown) [Product 42] | 228.95
* CC(=O)Nc1ncc(CN2CC[C@H](Cc3cncc4nccn34)C2)s1 [Product 108] | 202.48
* CC(=O)Nc1ncc(S(=O)(=O)N2CCNC(c3cc(C)nc4ncnn34)C2)s1 (stereo not shown) [Product 40] | 226.91
* CC(=O)Nc1ncc(CN2CCOC(c3cc(C(F)F)nc4ncnn34)C2)s1 (stereo not shown) [Product 34] | 260.21
* CC(=O)Nc1ncc(CN2CCCC(c3cc4cc[nH]c4nc3C)C2)s1 (racemic) [Product 74] | 276.23
* CC(=O)Nc1ncc(CN2CCC(c3cc(C(F)(F)F)nc4ncnn34)C2)s1 (stereo not shown) [Product 20] | 214.29
* CC(=O)Nc1ncc(S(=O)(=O)N2CCCC(c3cc(C(F)F)n4ccnc4n3)C2)s1 (racemic) [Product 23] | 280.13
* CC(=O)Nc1ncc(CN2CCCC(c3cc(C(F)F)n4ccnc4n3)C2)s1 (racemic) [Product 24] | 232.44
* CC(=O)Nc1ncc(S(=O)(=O)N2CCCC(c3cc(C(F)F)nc4ncnn34)C2)s1 (racemic) [Product 6] | 266.14
* CC(=O)Nc1ncc(CN2CCOC(c3cc(C(F)F)n4ncnc4n3)C2)s1 (stereo not shown) [Product 39] | 209.69
* CC(=O)Nc1ncc(CN2CCCC(Nc3cc(C)nc4ncnn34)C2)s1 (stereo not shown) [Product 51] | 249.94
* CC(=O)Nc1ncc(CN2CCCC(C)(c3cc(C(F)F)n4ncnc4n3)C2)s1 (stereo not shown) [Product 62] | 217.24
* CC(=O)Nc1ncc(S(=O)(=O)N2CC[C@H](C)[C@@H](c3cc(C(F)F)nc4ncnn34)C2)s1 [Product 7] | 264.57
* CC(=O)Nc1ncc(S(=O)(=O)N2CCOC(c3cc(C(F)(F)F)nc4ncnn34)C2)s1 (stereo not shown) [Product 27] | 255.12
* CC(=O)Nc1ncc(CN2CCOC(c3ccnc4ncnn34)C2)s1 (stereo not shown) [Product 36] | 251.21
* CC(=O)Nc1ncc(S(=O)(=O)N2CCNC(c3cc(C(F)F)nc4ncnn34)C2)s1 (stereo not shown) [Product 41] | 227.97
* CC(=O)Nc1ncc(S(=O)(=O)N2CCOC(c3cc(C(F)F)nc4ncnn34)C2)s1 (stereo not shown) [Product 33] | 264.85
* CC(=O)Nc1ncc(CN2CCC[C@@H](c3ccnc4ncnn34)C2)s1 [Product 65] | 236.16
* CC(=O)Nc1ncc(CN2CCC[C@H](c3ccnc4ncnn34)C2)s1 [Product 9] | 234.6
* CC(=O)Nc1ncc(S(=O)(=O)N2CCNC(c3cc(C(F)F)n4ncnc4n3)C2)s1 (stereo not shown) [Product 43] | 226.22
